system: ACHN renal; test: NCI tumour cell line growth inhibition, 48 h; in the data active = GI50 below about 0.43 µM; inactive = the rest
A correct response names exactly one class from active, inactive

Ask: For CN1CCN(c2ccc3nc(-c4ccc5nc(-c6ccc(OCCC(C)(C)C)cc6)[nH]c5c4)[nH]c3c2)CC1 , what call appears in the results of this test?
Reply: inactive

Ask: For COc1cc(C2=C(C#Cc3ccccc3)COC2=O)cc(OC)c1OC , what call appears in the results of this test?
Reply: inactive

Ask: For COc1cc2c3c(n(CCCI)c(=O)c2cc1OC)-c1cc2c(cc1C3=O)OCO2 , what call appears in the results of this test?
Reply: inactive

Ask: For COc1ccc(Cn2cc3c(c2-c2ccc(OC)cc2)CCc2cnoc2-3)cc1 , what call appears in the results of this test?
Reply: inactive

Ask: For COc1cc(/C=C/C(=O)c2ccc(NC(=O)CN3CCN(c4cc5c(cc4F)c(=O)c(C(=O)O)cn5C4CC4)CC3)cc2)cc(OC)c1OC , what call appears in the results of this test?
Reply: inactive

Ask: For COc1ccc2c(c1)C(=O)c1c-2c(Nc2ccc(Cl)cc2)nc2ccccc12 , what call appears in the results of this test?
Reply: inactive

Ask: For CCCCCCCCCCCCCC[n+]1ccc2c(C)c3c(c(C)c2c1)c1cc(O)ccc1n3CC , what call appears in the results of this test?
Reply: inactive

Ask: For Cc1cc(Cl)ccc1NC(=O)c1cc2ccccc2cc1O , what call appears in the results of this test?
Reply: inactive

Ask: For COc1cc2c(cc1Nc1nc(Nc3ccsc3C(N)=O)c3cc[nH]c3n1)N(C(=O)CN(C)C)CCC2(C)C , what call appears in the results of this test?
Reply: inactive

Ask: For CCC1CCc2nc3sc(C(=O)Nc4cccc(F)c4)c(N)c3cc2C1 (stereo not drawn) , what call appears in the results of this test?
Reply: inactive

Ask: For CN(C)c1ccc(Nc2cc(-c3cccc(OC(F)(F)F)c3)nc3ccc(N4CCCC4)cc23)cc1 , what call appears in the results of this test?
Reply: inactive

Ask: For N#Cc1c(N)nc(N2CCOCC2)c(C#N)c1-c1cccnc1 , what call appears in the results of this test?
Reply: inactive

Ask: For COc1cc(/C=C/C(=O)c2c(C)nc3ccccc3c2C)ccc1OCCCOc1cc2c(cc1OC)C(=O)N1CCC[C@H]1C=N2 , what call appears in the results of this test?
Reply: active
